These measurements were taken from PubChem BioAssay AID1159580.

Overview of reported normalized growth across a group of compounds:
# Protocol notes: chemical genetic growth profiling, strain panel (AID 1159580);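 also: tested at 20 µM; growth read once vehicle control cultures reached saturation at 30 °C; 1 = growth at the plate median or of vehicle wells; lower values mean less growth of the strain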
# Setup conditions: S. cerevisiae deletion strains, growth OD, locus YBR160W, strain CDC28, stronger effect = lower value
The whole screen tested about 5,500 compounds, of which about 2,000 (36%) were called active. Not shown: some 18% with an inconclusive outcome. This is one part of the list.
Quantity measured: normalized growth

Compound: O=c1cc(CSc2ccc(Cl)cc2)c2ccc(O)cc2o1
Endpoint value: 0.96
//
Compound: COc1ccccc1N1CCN(C(=O)C(C)c2ccc(CC(C)C)cc2)CC1 (stereo not given)
Endpoint value: 0.975
//
Compound: CN(C)/C=C1\CSc2ccc(Cl)cc2C1=O
Endpoint value: 0.95
//
Compound: N#C/C(N=Cc1cc(Cl)cc(Cl)c1O)=C(\C#N)N=Cc1cc(Cl)cc(Cl)c1O
Endpoint value: 0.922
//
Compound: CO/N=C1/CC(C)(C)Cc2c(-c3ccn(C(=O)Nc4cccc(Cl)c4)n3)sc(SC)c21
Endpoint value: 0.964
